tested on: OVCAR-3; test: NCI tumour cell line growth inhibition, 48 h
The source made the active and inactive calls. No stated cut-off is given here; in the data, active = GI50 up to about 1.1 µM and inactive = higher.
Bench note: report the call from YES = active, NO = inactive

Field: example entries. Status: answers known.
{"columns": ["Compound", "Class Name"],
 "data": [
  ["C1=CC=C2NCCCCCCC/N=C3/C=CC=CC=C3NCCCCCCC/N=C\\2C=C1", "NO"],
  ["COc1ccc2cccc(C(=N)c3ccc(C)c4c3CCC4)c2c1", "NO"],
  ["CC(=O)c1ccc2c(c1)oc(=O)n2CCN(C)C", "NO"]
]}

Q. What did the test return for Nn1c(-c2ccccc2)nc2ccc(Br)cc2c1=O ?
A. NO

Q. Hi, sorry to bother you, what did the test record for COc1c(O)c2c(c3cc(C(=O)N4CCc5c4c(O)c(OC)c4[nH]c(C(=O)N6CC7CC78C6=CC(=O)c6[nH]cc(C)c68)cc54)[nH]c13)CCN2C(N)=O (centres undefined) [CC-1065] ?
A. YES

Q. Check the results log: what was the call for COc1ccc2nccc(C3=CCC4CCN(C(=O)c5ccccc5)C3C4)c2c1 (centres undefined) ?
A. NO

Q. Look up the recorded call for NC(=O)C(=O)C1CCC2=C(Sc3ccccc3N2)C1=O (centres undefined) in this test.
A. NO

Q. Hi, do you know how CCCc1nc2c(n1CC)C(=O)c1ccccc1C2=O came out in this test?
A. NO

Q. // outcome(item) with item = CCCCCc1c2nc(c(CCCCC)c3ccc([nH]3)c(CCCCC)c3nc(c(CCCCC)c4ccc1[nH]4)C=C3)C=C2
A. NO

====

test system: NCI-H522; test: NCI tumour cell line growth inhibition, 48 h
Activity calls are given as the source filed them. No stated cut-off is given here; in the data, active = GI50 up to about 1.1 µM and inactive = higher.
Hello, when you answer, please use one of the following outcomes: Yes for active, No for inactive

Q. Please state the recorded outcome for this molecule: Cc1cn(C2CC(O)C(COC(N)=O)O2)c(=O)[nH]c1=O (stereo not given)
A. No

Q. Could you check what this test reported for C(=C1/CCCCC([n+]2ccccc2)=N1)/c1ccccc1 ?
A. No

Q. Short answer needed: outcome of this test for CCC1=NC(N/N=C/c2ccco2)=N/C1=C\c1ccco1 ?
A. No

Q. For this molecule, state the assay outcome: N#Cc1ccc(OCc2ccc3nc(-c4ccccc4)c(Cl)nc3c2)cc1
A. No

Q. // param item: O=C1CCSCCC(=O)Nc2ccccc2N1 ; yields the recorded call
A. No

Q. So what was the verdict on O=C1c2sccc2C(=O)c2c(CO)csc21 in this test?
A. No

Q. What did the test return for COc1ccc(C2c3cc4c(cc3OC(NNC(N)=O)C2C)OCO4)cc1 (stereo not given) ?
A. No

Q. Which outcome was entered for the molecule COC(=O)C1=C(C(=O)OC)C(C(=O)OC)C(C(=O)OC)=C1C(=O)OC in this test?
A. No

Q. Recorded test call requested for COc1ccc2cccc(C(=N)c3ccc(C)c4c3CCC4)c2c1
A. No

Q. For N=C(N)NS(=O)(=O)c1ccc(NC(=O)c2cccc3c(NNc4ccc(C(=O)O)cc4)c4ccccc4nc23)cc1 , which call appears in the assay record?
A. No

Q. Call for entry CSC1=C(C(=O)Nc2ccccc2)C(N)=NC1=O :
A. No

Q. Tell me the recorded outcome of this test for C/C(=C1/N=C(c2ccccc2)OC1=O)c1cccs1 .
A. No

Q. Per the records of this test, what outcome belongs to COc1c2c3c4c(c(OC)c(=O)c5c(O)cc(OC)c(c6c(OC)cc(O)c(c1=O)c63)c54)C(C(C)O)C2C(C)O (stereo not given) ?
A. Yes

Q. I would be grateful if you could indicate the recorded call for N#C/C(=C/n1c(=S)[nH]c2ccccc21)C(N)=O .
A. No

Q. What is the recorded call for this molecule in the test? CN(C)C(=O)C(NCCO)c1ccccc1 (stereo not given)
A. No

Q. Could you kindly confirm the outcome this assay logged for Cc1cccc(-c2nnc3s/c(=C\c4ccc(N(C)C)cc4)c(=O)n23)c1 ?
A. No

Q. Outcome logged for C(=C(c1ccc(OC2CCCCO2)cc1)c1ccc(OC2CCCCO2)cc1)c1ccccc1 (stereo not given) in this assay:
A. Yes

Q. Tell me the recorded outcome of this test for CC12CCC(C1)C(C)(C)C2OC(=O)c1ccccc1N (stereo not given) .
A. No

Q. // outcome(item) with item = Cc1ccc(-c2c(C#N)c(S)n(NS(=O)(=O)c3ccccc3)c(=O)c2C#N)cc1
A. No

Q. Fill in: this test's call for COc1ccc(S(=O)(=O)N2C(=O)CCC2C(=O)NN)cc1 (stereo not given) is ___
A. No
